tested_on: Discoidin domain-containing receptor 2 (Homo sapiens) (UniProt Q16832)
Sequence (Q16832 whole entry, the tested form may be a part): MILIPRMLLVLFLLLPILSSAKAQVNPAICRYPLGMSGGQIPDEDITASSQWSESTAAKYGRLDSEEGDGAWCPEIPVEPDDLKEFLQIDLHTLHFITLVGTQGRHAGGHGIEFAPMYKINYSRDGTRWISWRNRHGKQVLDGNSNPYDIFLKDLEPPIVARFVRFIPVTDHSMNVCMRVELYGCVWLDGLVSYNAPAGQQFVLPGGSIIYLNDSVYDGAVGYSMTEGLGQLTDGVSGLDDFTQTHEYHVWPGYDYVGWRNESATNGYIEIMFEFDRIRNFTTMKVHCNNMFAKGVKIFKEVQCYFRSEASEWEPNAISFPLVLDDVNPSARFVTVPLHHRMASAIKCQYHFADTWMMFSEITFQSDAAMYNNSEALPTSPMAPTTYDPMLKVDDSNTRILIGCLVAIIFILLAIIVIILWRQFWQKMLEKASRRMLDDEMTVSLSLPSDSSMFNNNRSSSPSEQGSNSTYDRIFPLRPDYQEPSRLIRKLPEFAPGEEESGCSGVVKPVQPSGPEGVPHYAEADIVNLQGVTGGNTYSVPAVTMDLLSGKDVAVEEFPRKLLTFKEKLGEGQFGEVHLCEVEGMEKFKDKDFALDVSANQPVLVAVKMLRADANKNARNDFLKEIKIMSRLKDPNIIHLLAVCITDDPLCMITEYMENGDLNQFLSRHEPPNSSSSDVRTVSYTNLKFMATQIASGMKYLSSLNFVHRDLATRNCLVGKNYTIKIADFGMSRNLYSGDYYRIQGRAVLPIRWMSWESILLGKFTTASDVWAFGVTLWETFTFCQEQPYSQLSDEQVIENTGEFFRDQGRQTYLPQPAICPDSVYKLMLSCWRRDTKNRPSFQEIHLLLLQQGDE
test_context: at 0.1 µM;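 further: reported values are mean percent inhibition of DDR2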
value_kind: inhibition (%)
Return type: number; implicit unit %.

{"columns": ["structure_smiles_string", "tested_on", "inhibition, %"],
 "data": [
  ["C[C@@H](Oc1cc(-n2cnc3ccc(OC4CCN(C)CC4)cc32)sc1C(N)=O)c1ccccc1Cl", "Discoidin domain-containing receptor 2 (Homo sapiens) (UniProt Q16832)", 1.72],
  ["COc1cc(C)c(N(C)C(=O)CN(C)C)cc1Nc1nc(Nc2cccc(F)c2C(N)=O)c2cc[nH]c2n1", "Discoidin domain-containing receptor 2 (Homo sapiens) (UniProt Q16832)", 0.29],
  ["c1ccc(-c2n[nH]cc2-c2ccnc(-c3ccc(OCCN4CCOCC4)cc3)c2)nc1", "Discoidin domain-containing receptor 2 (Homo sapiens) (UniProt Q16832)", 7.59]
]}

Let's switch to this compound now.
Q) I'd like to know its inhibition. The compound in question is O=C(Nc1ccc(Oc2ccc3[nH]c(NC(=O)c4ccccc4)nc3c2)cc1)Nc1cc(C(F)(F)F)ccc1F
A) 24.4
